Sourced from PubChem BioAssay (NCI)

Tested on: IGROV1 ovarian
Experiment: NCI-60 one-dose screen, 48 h (100 = growth as untreated, 0 = no growth, -100 = all killed)
Conditions: 10 µM unless noted
The panel holds about 83,000 compounds, 20% with a hit somewhere; the sample as a whole holds those more often. The source made the active and inactive calls. The calls were made as follows: active = growth percent below 10; inactive = the rest.
OUTCOME_MEASURE: growth

Look over these answered cases.
| COMPOUND | TARGET_SYSTEM | growth |
| --- | --- | --- |
| CCO/C=N/S(=O)(=O)c1cc2c(cc1Cl)NC=NS2(=O)=O | IGROV1 ovarian | 104% (inactive) |
| CSc1nc(-c2ccc(F)cc2)c(C#N)c(N2CCOCC2)n1 | IGROV1 ovarian | 92% (inactive) |
| COc1ccc(C2C(c3ccccc3)C(=O)N2c2cc(OC)c(OC)c(OC)c2)cc1I (stereo not given) | IGROV1 ovarian | 20.6% (inactive) |
| CN(C)CCCn1c2c(c3cc(-c4ccco4)ccc3c1=O)C(=O)c1ccccc1-2 | IGROV1 ovarian | 52.2% (inactive) |

Task: Give growth (IGROV1 ovarian) of the following compound: CC(C)CSc1nc(Nc2ccccc2)c(C#N)c(-c2ccc(F)cc2)n1
Output: 1.71% (active)

###

Tested on: MALME-3M melanoma
Assay: NCI-60 one-dose screen, 48 h (100 = growth as untreated, 0 = no growth, -100 = all killed)
Settings: 10 µM unless noted
The panel holds about 83,000 compounds, 20% with a hit somewhere; the sample as a whole holds those more often. Calls of active or inactive are those of the source. How the source made its calls: active means growth percent below 10; inactive means the rest.
Entries annotated with measured growth

Look over these answered cases.
| COMPOUND | growth |
| --- | --- |
| N#Cc1c(-c2ccc(Cl)cc2)cc(-c2cc3ccccc3o2)nc1SCC(=O)c1ccc(Cl)cc1 | 90.6% (inactive) |
| O=C(/C(=C/c1ccc([N+](=O)[O-])cc1)SCc1ccc(F)cc1)c1ccc(Cl)cc1 | 91.9% (inactive) |
| Cc1cc2ccccc2c[n+]1CC(=O)c1ccc(-c2ccccc2)cc1 | 71.4% (inactive) |
| O=C(Nc1cc(=O)[nH]c(=O)[nH]1)C(Cl)Cl | 96.7% (inactive) |
| O=C(N/N=C/C[C@@H]1[C@@H](/C=C/[C@@H](O)COc2cccc(Cl)c2)[C@H](O)C[C@@H]1O)c1ccncc1 | 98.1% (inactive) |

Task: Please look up its growth: COc1cc(/C=C/CO)cc(OC)c1O[C@@H]1O[C@H](CO)[C@@H](O)[C@H](O)[C@H]1O
Output: 102% (inactive)

###

Entries annotated with measured growth
System: SK-MEL-28 melanoma
Assay: NCI-60 one-dose screen, 48 h (100 = growth as untreated, 0 = no growth, -100 = all killed)
Details: 10 µM unless noted
This is part of a sample that, as a whole, favours compounds with a hit. Of some 83,000 tested, about 20% had one in any assay.
Use % as the unit, but write only the number.

Look over these answered cases.
| COMPOUND | NUMBER |
| --- | --- |
| CC1(C)Cc2c(Br)c(Br)c(Br)c(OCC(O)CN3CCOCC3)c2O1 (stereo not given) | 137 |
| CCSc1ccc(C2C(Br)C(=O)N2c2cc(OC)c(OC)c(OC)c2)cc1 (stereo not given) | 56.7 |
| Cc1ccc(C2=N[C@H]3CCC[C@@H]3N(c3ccccc3)C(C(Cl)Cl)=N2)cc1 | 101 |
| COc1cc(C2=NN(c3ccccc3)C(c3cccc(Nc4ccnc5cc(C(F)(F)F)ccc45)c3)C2)cc(OC)c1OC (stereo not given) | 100 |

Task: Please look up its growth: O=C(CCCC(=O)Nc1ccc(-n2nnc3cc(Cl)c(Cl)cc32)cc1)Nc1ccc(-n2nnc3cc(Cl)c(Cl)cc32)cc1
Output: 57.9

Task: Note, next up: COC(=O)c1cncc(C(=O)Nc2ccc(-n3cnc4ccccc43)cc2)c1
Output: 103

Task: Note, next up: CC1=C(CCCOC(=O)NCCCl)C2=C(C)C3(CC3)[C@@](C)(O)C(=O)C2=C1
Output: 69.3

Task: Note, next up: Cn1c2c(c3ccc(-c4ccn[nH]4)cc3c1=O)C(=O)c1ccccc1-2
Output: 88.6

Task: Note, next up: CCCNc1nc(C)[nH]c(=O)c1S
Output: 114

Task: Note, next up: N#Cc1c(-c2ccc(F)cc2)nc(N=Nc2c(O)[nH]c3ccccc23)nc1N1CCOCC1
Output: 72.3
